target: CDK2/CycA2 (Homo sapiens); assay: ADP-Glo kinase assay on CDK enzymatic activity, CDK2/CycA2; format: biochemical; conditions: 10 concentrations from 10 μM, 4-fold, 60 min room temperature
endpoint: log10(IC50) (log10 of the value in nM)

[[record]]
compound = "CC(C)Nc1nc(C#N)cc2cnc(N[C@H]3C[C@H](N)C3)cc12 [Compound 183]"
tgt = "CDK2/CycA2 (Homo sapiens)"
endpoint = "log10(IC50)"
quantitative_readout = 1.45

[[record]]
compound = "CC(=O)N[C@@H]1CCC[C@H](C(=O)Nc2cc3c(NC4CC4)nc(C#N)cc3cn2)C1 [Compound 16]"
tgt = "CDK2/CycA2 (Homo sapiens)"
endpoint = "log10(IC50)"
quantitative_readout = 3.16

[[record]]
compound = "CC(C)Nc1nc(C#N)cc2cnc(NC(=O)[C@H]3CCC[C@H](N)C3)cc12 [Compound 27]"
tgt = "CDK2/CycA2 (Homo sapiens)"
endpoint = "log10(IC50)"
quantitative_readout = 3.40

[[record]]
compound = "CC(=O)N[C@@H]1CCC[C@H](C(=O)Nc2cc3c(NC(CCO)CCO)nc(C#N)cc3cn2)C1 [Compound 18]"
tgt = "CDK2/CycA2 (Homo sapiens)"
endpoint = "log10(IC50)"
quantitative_readout = 3.53

[[record]]
compound = "N#Cc1cc2cnc(N[C@H]3CCCNC3)cc2c(N[C@@H]2CCOC2)n1 [Compound 150]"
tgt = "CDK2/CycA2 (Homo sapiens)"
endpoint = "log10(IC50)"
quantitative_readout = 2.65

[[record]]
compound = "CC(C)Nc1nc(C#N)cc2cnc(N[C@H]3CC[C@H](N4CCOCC4)CC3)nc12 [Compound 141]"
tgt = "CDK2/CycA2 (Homo sapiens)"
endpoint = "log10(IC50)"
quantitative_readout = 1.36


* * *

target: CDK3/CycE1 (Homo sapiens); test: ADP-Glo kinase assay on CDK enzymatic activity, CDK3/CycE1; format: biochemical; conditions: 10 concentrations from 10 μM, 4-fold, 60 min room temperature
endpoint: IC50 (nM)

[[record]]
mol_smiles = "CC(=O)N[C@@H]1CCC[C@H](C(=O)Nc2cc3c(N4CC[C@@H](N)C4)nc(C#N)cc3cn2)C1"
unit_descriptor = "nM"
quantitative_readout = 1750

[[record]]
mol_smiles = "CC(C)Nc1nc(C(F)F)cc2cnc(N[C@H]3CC[C@H](N)C3)cc12"
unit_descriptor = "nM"
quantitative_readout = 23

[[record]]
mol_smiles = "N#Cc1cc2cnc(N[C@H]3CCCNC3)cc2c(O[C@@H]2CCOC2)n1"
unit_descriptor = "nM"
quantitative_readout = 371

[[record]]
mol_smiles = "CC(C)Nc1nc(C(F)(F)F)cc2cnc(N[C@H]3CCCNC3)nc12"
unit_descriptor = "nM"
quantitative_readout = 8

[[record]]
mol_smiles = "CC(C)Nc1nc(C#N)cc2cnc(N[C@H]3CCNC3)cc12"
unit_descriptor = "nM"
quantitative_readout = 1300

[[record]]
mol_smiles = "CC(=O)N[C@@H]1CCC[C@H](C(=O)Nc2cc3c(NC(C)(C)C)nc(C#N)cc3cn2)C1"
unit_descriptor = "nM"
quantitative_readout = 273

[[record]]
mol_smiles = "CC(C)(C)Nc1nc(C(F)F)cc2cnc(N[C@H]3CCCNC3)nc12"
unit_descriptor = "nM"
quantitative_readout = 7

[[record]]
mol_smiles = "CC1(Nc2nc(C#N)cc3cnc(N[C@H]4CCCNC4)cc23)CC1"
unit_descriptor = "nM"
quantitative_readout = 49


* * *

target: CDK9/CycT1 (Homo sapiens); assay: ADP-Glo kinase assay on CDK enzymatic activity, CDK9/CycT1; format: biochemical; conditions: 10 concentrations from 10 μM, 4-fold, 60 min room temperature
Sequence (P50750 whole entry): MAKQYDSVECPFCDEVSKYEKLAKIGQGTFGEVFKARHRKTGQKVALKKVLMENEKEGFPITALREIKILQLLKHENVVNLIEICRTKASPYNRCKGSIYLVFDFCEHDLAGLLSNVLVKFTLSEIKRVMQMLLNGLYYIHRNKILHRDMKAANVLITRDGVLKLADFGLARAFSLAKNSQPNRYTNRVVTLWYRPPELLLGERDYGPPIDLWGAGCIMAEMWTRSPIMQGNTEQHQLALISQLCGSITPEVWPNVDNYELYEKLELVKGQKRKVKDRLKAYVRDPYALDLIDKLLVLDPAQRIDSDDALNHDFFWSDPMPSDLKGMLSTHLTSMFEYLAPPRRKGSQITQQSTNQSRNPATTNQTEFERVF
Sequence (O60563 whole entry partner): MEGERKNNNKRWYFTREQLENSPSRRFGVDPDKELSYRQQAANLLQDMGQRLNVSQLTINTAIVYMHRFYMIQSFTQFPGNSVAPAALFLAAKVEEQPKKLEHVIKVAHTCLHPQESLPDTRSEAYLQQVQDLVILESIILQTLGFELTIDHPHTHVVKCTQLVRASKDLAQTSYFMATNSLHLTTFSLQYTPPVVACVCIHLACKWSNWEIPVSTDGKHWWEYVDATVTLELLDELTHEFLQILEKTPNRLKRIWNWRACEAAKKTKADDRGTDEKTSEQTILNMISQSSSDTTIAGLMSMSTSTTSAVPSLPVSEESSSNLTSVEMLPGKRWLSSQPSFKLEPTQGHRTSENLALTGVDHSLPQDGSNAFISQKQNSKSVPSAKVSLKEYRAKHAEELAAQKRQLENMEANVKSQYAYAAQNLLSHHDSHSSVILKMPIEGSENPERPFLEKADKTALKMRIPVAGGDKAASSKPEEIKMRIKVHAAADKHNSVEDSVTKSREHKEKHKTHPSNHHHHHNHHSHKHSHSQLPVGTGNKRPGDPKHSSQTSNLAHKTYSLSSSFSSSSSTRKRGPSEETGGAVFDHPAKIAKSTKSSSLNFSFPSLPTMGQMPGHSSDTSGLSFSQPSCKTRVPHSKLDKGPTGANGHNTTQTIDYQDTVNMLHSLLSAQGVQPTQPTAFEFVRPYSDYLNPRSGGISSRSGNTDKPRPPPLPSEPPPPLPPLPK
Field: label. Allowed values: Criterion met (IC50 < 2 nM) or Criterion not met (IC50 >= 2 nM).

[[record]]
mol_smiles = "N#Cc1cc2cnc(N[C@H]3CCCNC3)cc2c(C2CCCCC2)n1"
cat = "Criterion not met"

[[record]]
mol_smiles = "CC(C)Nc1nc(C#N)cc2cnc(N[C@H]3CC[C@H](N)C3)cc12"
cat = "Criterion not met"

[[record]]
mol_smiles = "N#Cc1cc2cnc(N[C@H]3CCCNC3)cc2c(NC2CC2)n1"
cat = "Criterion not met"

[[record]]
mol_smiles = "CC(C)Nc1nc(C#N)cc2cnc(N[C@H]3CCOC3)nc12"
cat = "Criterion not met"

[[record]]
mol_smiles = "CC(C)Nc1nc(C#N)cc2cnc(N[C@H]3CCCC[C@@H]3O)cc12"
cat = "Criterion not met"

[[record]]
mol_smiles = "CCNc1nc(C#N)cc2cnc(N[C@H]3C[C@](C)(N)C3)nc12"
cat = "Criterion met"

[[record]]
mol_smiles = "N#Cc1cc2cnc(N[C@H]3CCCNC3)cc2c(N2CCCC2)n1"
cat = "Criterion not met"

[[record]]
mol_smiles = "C=Cc1cc2cnc(NC(=O)[C@H]3CCC[C@@H](NC(C)=O)C3)nc2c(NC(C)C)n1"
cat = "Criterion not met"

[[record]]
mol_smiles = "CC(C)(C)Nc1nc(C#N)cc2cnc(N[C@H]3CC[C@H](O)C3)cc12"
cat = "Criterion met"

[[record]]
mol_smiles = "CC(C)Nc1nc(C#N)cc2cnc(N[C@H]3CCNC3)cc12"
cat = "Criterion not met"

[[record]]
mol_smiles = "CC(C)(C)Nc1nc(C#N)cc2cnc(N[C@H]3CCCNC3)nc12"
cat = "Criterion not met"

[[record]]
mol_smiles = "CC(C)Nc1nc(C#N)cc2cnc(N[C@H]3CCC(=O)NC3)nc12"
cat = "Criterion not met"

[[record]]
mol_smiles = "CCOc1nc(C#N)cc2cnc(N[C@H]3C[C@H](N)C3)cc12"
cat = "Criterion not met"

[[record]]
mol_smiles = "CC(=O)N[C@@H]1CCC[C@H](C(=O)Nc2cc3c(N4CC[C@@H](N)C4)nc(C#N)cc3cn2)C1"
cat = "Criterion not met"

[[record]]
mol_smiles = "CC(=O)N[C@@H]1CCC[C@H](C(=O)Nc2cc3c(N4CCC(F)(F)CC4)nc(C#N)cc3cn2)C1"
cat = "Criterion not met"

[[record]]
mol_smiles = "N#Cc1cc2cnc(N[C@H]3C[C@H](N)C3)cc2c(N[C@@H]2CCOC2)n1"
cat = "Criterion met"

[[record]]
mol_smiles = "CC(C)Nc1nc(C(F)F)cc2cnc(N[C@H]3CCCNC3)cc12"
cat = "Criterion met"

[[record]]
mol_smiles = "CC(=O)N[C@@H]1CCC[C@H](C(=O)Nc2ncc3cc(C(F)F)nc(NC(C)C)c3n2)C1"
cat = "Criterion not met"

[[record]]
mol_smiles = "CSc1nc(C#N)cc2cnc(N[C@H]3CCCNC3)cc12"
cat = "Criterion not met"

[[record]]
mol_smiles = "CN[C@H]1C[C@H](Nc2ncc3cc(C#N)nc(NC(C)C)c3n2)C1"
cat = "Criterion met"

[[record]]
mol_smiles = "CC(C)Nc1nc(C#N)cc2cnc(NC3CCS(=O)(=O)CC3)nc12"
cat = "Criterion not met"

[[record]]
mol_smiles = "CC(C)Nc1nc(C#N)cc2cnc(N[C@H]3CCCCNC3)nc12"
cat = "Criterion not met"

[[record]]
mol_smiles = "CC(C)Nc1nc(C#N)cc2cnc(N[C@@H]3CCCOC3)nc12"
cat = "Criterion not met"


* * *

biological target: CDK3/CycE1 (Homo sapiens, UniProt Q00526); experiment: ADP-Glo kinase assay on CDK enzymatic activity, CDK3/CycE1; assay type: biochemical; conditions: 10 concentrations from 10 μM, 4-fold, 60 min room temperature
Sequence (Q00526 whole entry, species assumed): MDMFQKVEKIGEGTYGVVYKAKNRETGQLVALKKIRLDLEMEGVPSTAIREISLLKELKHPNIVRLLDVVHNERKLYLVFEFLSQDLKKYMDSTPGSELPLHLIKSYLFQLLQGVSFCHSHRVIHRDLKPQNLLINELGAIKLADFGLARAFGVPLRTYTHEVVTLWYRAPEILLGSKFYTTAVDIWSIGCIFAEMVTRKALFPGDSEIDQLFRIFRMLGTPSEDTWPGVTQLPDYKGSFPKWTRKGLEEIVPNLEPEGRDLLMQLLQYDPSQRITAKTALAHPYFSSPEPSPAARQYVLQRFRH
Sequence (P24864 whole entry partner, species assumed): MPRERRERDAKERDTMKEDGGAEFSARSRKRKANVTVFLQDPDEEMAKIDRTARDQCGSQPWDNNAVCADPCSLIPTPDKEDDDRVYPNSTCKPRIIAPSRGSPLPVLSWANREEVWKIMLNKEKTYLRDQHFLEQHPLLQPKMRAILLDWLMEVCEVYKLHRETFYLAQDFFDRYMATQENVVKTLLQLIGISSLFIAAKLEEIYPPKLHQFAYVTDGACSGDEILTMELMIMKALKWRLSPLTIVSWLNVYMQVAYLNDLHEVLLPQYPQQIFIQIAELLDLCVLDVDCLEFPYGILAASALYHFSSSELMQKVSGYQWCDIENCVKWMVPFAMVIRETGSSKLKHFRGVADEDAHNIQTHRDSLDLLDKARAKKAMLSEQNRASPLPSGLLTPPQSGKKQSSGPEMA
Measured log10(IC50), listed per entry.
endpoint: log10(IC50) (log10 of the value in nM)

[[record]]
compound = "CC(=O)N1CCC[C@H](C(=O)Nc2cc3c(NC(C)C)nc(C#N)cc3cn2)C1 [Compound 24]"
endpoint = "log10(IC50)"
quantitative_readout = 2.94

[[record]]
compound = "CC1(Oc2nc(C#N)cc3cnc(N[C@H]4CCCNC4)cc23)CC1 [Compound 204]"
endpoint = "log10(IC50)"
quantitative_readout = 3.15

[[record]]
compound = "CC(C)Nc1nc(C#N)cc2cnc(N[C@H]3CCCNC3)cc12 [Compound 38]"
endpoint = "log10(IC50)"
quantitative_readout = 1.82

[[record]]
compound = "CC(C)Nc1nc(C#N)cc2cnc(N[C@@H]3CC[C@@H](N)C3)cc12 [Compound 30]"
endpoint = "log10(IC50)"
quantitative_readout = 1.98

[[record]]
compound = "N#Cc1cc2cnc(N[C@H]3CCCNC3)cc2c(N[C@@H]2CCOC2)n1 [Compound 150]"
endpoint = "log10(IC50)"
quantitative_readout = 2.45

[[record]]
compound = "FC(F)c1cc2cnc(N[C@H]3CCCNC3)cc2c(N[C@@H]2CCOC2)n1 [Compound 201]"
endpoint = "log10(IC50)"
quantitative_readout = 2.28

[[record]]
compound = "CC(C)(C)Nc1nc(C#N)cc2cnc(N[C@H]3CC[C@H](O)C3)cc12 [Compound 35]"
endpoint = "log10(IC50)"
quantitative_readout = 1.54

[[record]]
compound = "CCC(CC)Nc1nc(C#N)cc2cnc(N[C@H]3CC[C@H](N)C3)cc12 [Compound 48]"
endpoint = "log10(IC50)"
quantitative_readout = 2.68

[[record]]
compound = "CC(C)Nc1nc(C#N)cc2cnc(N[C@H]3CCC(=O)NC3)nc12 [Compound 106]"
endpoint = "log10(IC50)"
quantitative_readout = 1.46

